test system: MS2 coat protein; assay: apparent KD of MS2 coat protein; designed switch direction (-1 OFF switch, 1 ON switch): -1; higher = weaker reporter binding; conditions: input ligand: FMN 200 uM
Kindly return satisfied if reported apparent KD of MS2 coat protein is no lower than 100 nM; return not satisfied if it is lower.

ACUGGAGCAGGAUAUACAUUCGUGCUUCGGCACGUAAGAUCACAUGAGGAUCACCCAUGUAGAAGGGCUCCAGU [E2/5-D1] (Eterna round: R97, puzzle: Exclusion 2); satisfied
UAGCAGCGAGGAUAUACAGACAGGUCCAAUACGUGUCUUGGACUUGAGGAUCACCCAAGUAGAAGGCGCCACAG [salish99_ex2_r4_602] (Eterna round: R97, puzzle: Exclusion 2); satisfied

Can UUUUUAUAUGAAGGAUAUACUUAACAUGAGGAUCACCCAUGUGGUGUUGUGAGUGAGUGAGUUUAGUAGAAGGUCAAUUAUUUU [JMF's solution 6] (Eterna round: R96, puzzle: Exclusion NG 2) be said to have apparent KD of MS2 coat protein at or above 100 nM?
satisfied

In plain terms: is recorded apparent KD of MS2 coat protein at least 100 nM for UAAACAAGCUUAAGAUCCUACAUGAGGAUCACCCAUGUGCUCGUCUUGUAACGUACUGUGACGAAAGUCACGGUACG [JL TOV1 3.09] (Eterna round: R97, puzzle: Sensor, turn-off variant 1) ?
satisfied

###

tested on: MS2 coat protein; test: apparent KD of MS2 coat protein; designed switch direction (-1 OFF switch, 1 ON switch): -1; higher = weaker reporter binding; details: input ligand: FMN 200 uM
Catalogue of apparent KD of MS2 coat protein readings, one per entry.
Kindly provide the numeric value in nM only, without the unit symbol.

Guide cases for apparent KD of MS2 coat protein, answers given:
GUCCUCAUGACAUGAGGAUCACCCAUGUAUUAUUUGGUAACUGAGGAUAUACUUUUAAUGUUUAUGUAGAAGGCAGAUACGGUU [JR_ExcNG3_Sub018] (Eterna round: R96, puzzle: Exclusion NG 3); 197
GCCGUACAAGGAUAUCUAUCGCAAAACAUGAGGAUCACCCAUGUGUAUCCUAACCGGCGAAGAGAAGGUGUAGUUA [Letelabe] (Eterna round: R97, puzzle: Exclusion 5); 24.4
CCCAAAGGGACAAGCUUUUACAUGAGGAUCACCCAUGUUUUGGGAGCUCGUCUUAUGGGCCCGGGAAACCCGGGCCC [-38, -58.7 kcal, A 22%] (Eterna round: R97, puzzle: Sensor, turn-off variant 1); 17.1
CAGCUGUCAGGAUAUCGUGCAUACAACGAAAGUUCUAUGUGCGAGAAGGGACAUGAGGAUCACCCAUGUUUCCG [Omei Ex4 A23] (Eterna round: R97, puzzle: Exclusion 4); 21.1

Now for another entry.
I am curious: what apparent KD of MS2 coat protein value has been reported for CUUUCGUCUGUGGGUGGUGACAUGAGGAUCACCCAUGUUUUGCUCGUCUUGUCCCGGGCCCGGCGCCCGGGCCCGGG [-38.7, -62.5, A 8%] (Eterna round: R97, puzzle: Sensor, turn-off variant 1) ?
1210

###

system: K4 kissing-loop RNA reporter; assay: apparent KD of K4 kissing-loop reporter; higher = weaker reporter binding; details: Eterna round: R107; input ligand: arginine 13.2 mM;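 also: bound reporter read as fluorescence of individual clusters on recovered sequencing chips by microscopy, with normalized cluster intensities fitted with a binding model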
Each entry gets FALSE if its apparent KD of K4 kissing-loop reporter stays under 200 nM, and TRUE if its apparent KD of K4 kissing-loop reporter is 200 nM or above.

Here are 8 sequences together with their reported answers.
GCUCGUCAUGUCAGCGGUGGUACUGUCGAUACCAGUGCCGUAAGGCGCCCUUGGCAGCGAUGCGCUGGAGUGAUGUUCCAGCGUU [#2 Exclusion - Theophylline A Attempt #32 (HarryS)]; FALSE
AGGUUUUGAUUAGGAUAUGCACUGAGGAGGAGAAUAUAGUGAUGUUAUAUAAGAGGAAGGAGUAGAGUAGAAGGGAUUGAGGUUU [SSFMNB.R]; FALSE
AACAGCAAUGCGGCCGCCACUUCGAGUUCAGUGAUGUUGAAAGAAUUAAAUAAAGAUCCCAAGAGGAGGACCGGGCAGUGCUGUU [Default title]; TRUE
GCCGUAGAUGGAAGGAGCGUGUCCAAACCUCAUUCAUGUACACACGAGUGAUGUUCGUGUACACAGGUAGGUCGCCAUCUACGGC; TRUE
CUCGUGGGUUUGAGAGGGCUUGUGGGAAGUGAGGAUAUUUAGGGAGAAAGAAGGCACUAUAGAAUAUAGUGAUGUUAUGUAAGGG [SSFMNA.O]; TRUE
GGAGUUACCUGGGAUACCAGCCGGAGGCCCAGAGCUCGGAGUGAUGUUCUGGGAUGUUUCGGCCCUUGGCAGCUCUGGGUCUCCG [#2 Exclusion - Theophylline B Attempt #5 (HarryS)]; TRUE
GGUUGAAGUACCCGGAGUGAUGUUCCGGAUACCAGCAAACCAACUUGCCCUUGGCAGCCGUAUAGCGUCCGGUGGACCGAGCAUA [Soriesreve]; FALSE
AAUAAGGAGUGAUGUUCCAAGUGAUGUUAACGAGGACCGGUACGGCCGCCACUCGAUACGGCCGGAAAAUAAAAUAAAAUAAAAU [Same State - Tryptophan A (Freestyle 1)]; FALSE

Decide: apparent KD of K4 kissing-loop reporter of GUAGACAGGCUGCGAACCUAGUCUACAGACUAGGAUAUCAGGAAACUGAGAAGGAGUCUAGUUGCAGUGAUGUUGCAAGAAUAAU [KL-SSFMN-A25] >= 200 nM?
FALSE

Say whether AAGGUAUCACCACAACAUCACUAAGGUGAUACCAGCAUCGAAAGAUGCCCUUGGCAGCACCAACUUGCAGUGAUGUUGCAAGUAA [(T)'-(H)'-(T1)-(T2)-(H1)-(H2)_Design9] shows apparent KD of K4 kissing-loop reporter of 200 nM or more.
TRUE

Could you tell me if the measured apparent KD of K4 kissing-loop reporter of UUAUAUUUCAGUGAUGUUGAAAAUAUAACAGAGGAUAUGCGUUUAAGCAGAAGGCUGAAAUACUAUACUUUAAUCUAUUAAAUUU [JR_Nu_SSFMNA_Sub027] reaches 200 nM or more?
TRUE

###

tested on: MS2 coat protein; test: apparent KD of MS2 coat protein; designed switch direction (-1 OFF switch, 1 ON switch): 1; higher = weaker reporter binding; conditions: input ligand: none
property.name: apparent KD of MS2 coat protein (nM)
API: value field is a number in nM; no unit string.

GUGAAGAAUUAAGGAUAUCGAGUCAAGAUGUUAAACAUGAGGAUCACCCAUGUGGGUUGCGGUAUCGAGAAGGUAAAUUACAAG [salish99_SSNG2_r04_501] (Eterna round: R96, puzzle: Same State NG 2); 31.4
AGCUAUUACGCAGGAUAUAGGGACAUGAGGAUCACCCAUGUGUACAUGAGUAAAUGUGAUCACGUCUAGAAGGGUGUACUAACA [SameState NG2 #37] (Eterna round: R96, puzzle: Same State NG 2); 321
ACAUGAGAGCUAGGAUAUUUUGUACCUACAUGUGACAUGAGGAUCACCCAUGUGGUAAGUAUGAGAAAGAAGGAGCAGAUAUGU [Equivalance 53 - Jieux - Same State NG 2] (Eterna round: R96, puzzle: Same State NG 2); 38

As a next step, examine the sequence that follows.
For the sequence shown here, AGAUCAUGACGAGGAUAUGGUACAUGAGGAUCACCCAUGUAUGUAUCAUAACGCGAAUGACGAAACCAGAAGGCGUCGUGGUCA [JL SSNG2 1.11] (Eterna round: R96, puzzle: Same State NG 2) , give the reported apparent KD of MS2 coat protein.
14.9

###

Recorded apparent KD of MS2 coat protein, one value per entry.
tested on: MS2 coat protein; assay: apparent KD of MS2 coat protein; higher = weaker reporter binding; conditions: Eterna round: R101; input ligand: none
Express the result in nM but write the number alone.

Use the examples below as a reference point.
AAAUAACUUGAAGGAUAUGACCCUCGAGGUGACUAAAAGUCACCUCGAGGGUCAGAAGGUCGAGGAUCACCCGACCAAGUGAAA [#SharedSequence SLExNG1: 9] (puzzle (switch architecture): Small Loop Exclusion NG 1); 9.17
UGCUAACUGUAGAAGGGUGACAUGAGGAUCACCCAUGUGCACGCGCGCUUUACGGCGCGCGUGCCACAGGAUAUACAGUUGAGU [Erora] (puzzle (switch architecture): Inverted Same State NG 2); 43.1
AAUAAACAAUAAAAGAGUCCACGAAACUUCUGAGGAUCACCCAGAAGGGCUGAGGUAAUACCUCAGCAGGAUAUGGACGUGGAC [#SharedSequence IExNG# - 1] (puzzle (switch architecture): Inverted Exclusion NG 3); 5

Sample AGAAACUACGAGAAGGACAUGUGGUCCUUCAAAAAAAUGAGGAUCACCCAUGUAGGAUAUCGUAGUUUCAGGAUCGUGAGAUCA [salish99_ISLExNG1_x101 #HINGE] (puzzle (switch architecture): Inverted Small Loop Exclusion NG 1) — what was its apparent KD of MS2 coat protein?
30
